Reported IC50 values for the following molecules.
measured.on: Beta-lactamase VIM-2 (Pseudomonas aeruginosa)
assay.info: Inhibition of Pseudomonas aeruginosa 301-5473 6His-tagged VIM-2 (V27 to E268 residues) expressed in Escherichia coli BL21 Star(DE3) pLysS using nitrocefin as substrate preincubated for 5 mins followed by substrate addition by spectrophotometric analysis
assay.metric: IC50

INSERT INTO assay_data (molecule, assay_metric, value_measured) VALUES
  ('CCOP(=O)(OCC)C(CO)CCCc1ccccc1 (centres undefined)', 'IC50', '> 10 µM'),
  ('CCOP(=O)(OCC)C(CO)CCc1ccccc1 (centres undefined)', 'IC50', '> 10 µM'),
  ('CCOP(=O)(OCC)C(CO)CCCCc1ccccc1 (centres undefined)', 'IC50', '> 10 µM'),
  ('O=P(O)(O)C(CO)CCc1ccccc1 (centres undefined)', 'IC50', '27 to 35 µM');
